- System: RARb homodimer (NR concentration 270 nM)
- Assay Overview: PBM binding z-score (relative to random genomic background probes); higher = stronger binding; sequences stand for … in GC…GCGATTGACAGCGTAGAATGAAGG
Metric Name: PBM binding z-score

                              sequence  value_observed
 0  ATCTCTAGGTAAAGTTCATTGAAAGATCGATAGA            1.97
 1  CGAACAAGGTCAAAGGACAGTGAAAGGCGACGTA            3.95
 2  CGAACTAGGTCACCTGGACAGTGAAGAGGTTGGA            3.36
 3  AGTCAAAGTTCACGAGGTAACGTAAGATTCAGCT            4.91
 4  TCTAGTTGGTTACGGAGGTCACACACGACGGGTA            3.79
 5  CCTTACGGGTCAGTGACAGGTTATAGCATTTGGA            2.85
 6  CGTCCAAGGTCAAAGGTCAGCGAAGAGATGACGG            5.39
 7  CTAACTAGGTCACGAAAGGTCAAAGTCGAATGAC             5.7
 8  CTATGTAGGTTAAGGGGGTCAGTCAGTTTGAAAG            3.63
 9  CGTCGGAGGACAGAAGGTCAGAGCTGTCCGCTTT            3.36
10  TGAATGAAGTTAAAGATCAGGGAACGTGGCGTCG              -1
11  CCGAGTAGGTTACAAGGGGGCATTCAGTGCGAAT            2.41
12  CATCCAAGGTCAAAGGTCAGTGAAGAGATGACGG            5.65
13  CGGCCAAGGTCAAAGGTCAGTGAAGAGATGACGG            5.37
14  CAAACTAGGTCACAGGGGTCAAAGTCCGTGCGTA            5.94
15  CTATGTAGGTTAAGGGGGTCACTCAGTTTGAAAG            3.95
16  CGAAATAGGTCAAAGGACAGTGAAAGGCGACGTA             3.4
17  CCTAGTTGGTCAGGAGGTCACATACCGGATATGA            4.17
18  CGAACTAGGCCAAAGGACAGTGAAAGGCGACGTA           0.837
19  CTATGTACGTTAAGGGGGTCATTCAGTTTGAAAG            3.65
20  ACTAGTTGGTCAGCTGAGGTAACACACAATTCGG            1.07
21  CGAACTAGGTCACCAGGCCAGTGAAGAGGTTGGA            3.33
22  ATATGTAGGTAACATCCGGGTCATTCAGGCTATG            2.68
23  GGAACGAGGGCAAAGGTGATAGCATCTGTCGACG            1.66
24  TATTGTAGATCAAAGGTTAAGAAAGCCGAAGCCT            1.38
25  CCGAGTAGGTTACGAGGGGGCATTGAGTGCGAAT            1.96
26  CTATGTAGGTTAAGGGGGTCTTTCAGTTTGAAAG            1.69
27  CCTGCTAGGTCTATGGTCAGCTAAAGCAGCTCGC           0.163
28  ACTAGCAGGCCAAGAGTCACTCAAGATTAGTCCG          0.0309
